Source listed as paper PMC10575921.

# Test Protocol: in vivo
# Condition Parameters: both, cynomolgus monkey, po, 5 mg/kg
Quantity Measured: AUC(0-inf) (ng·h/mL)
Respond with the bare value in ng·h/mL.

Quick check: AUC(0-inf) of CC(C)(C)[C@H](NC(=O)C(F)(F)F)C(=O)N1CC2(C[C@H]1C(=O)N[C@H](C#N)C[C@@H]1CCNC1=O)SCCS2 [compound 9, simnotrelvir] ?
1790

----------
# Test Protocol: in vivo
# Condition Parameters: both, cynomolgus monkey, po
Quantity Measured: NOAEL (mg/kg/day)
Respond with the bare value in mg/kg/day.

Quick check: NOAEL of CC(C)(C)[C@H](NC(=O)C(F)(F)F)C(=O)N1CC2(C[C@H]1C(=O)N[C@H](C#N)C[C@@H]1CCNC1=O)SCCS2 [compound 9, simnotrelvir] ?
600

----------
# Test Protocol: in vivo
# Condition Parameters: both, cynomolgus monkey, po
Quantity Measured: AUC(0-t) (ng·h/mL)
Respond with the bare value in ng·h/mL.

Quick check: AUC(0-t) of `CC(C)(C)[C@H](NC(=O)C(F)(F)F)C(=O)N1CC2(C[C@H]1C(=O)N[C@H](C#N)C[C@@H]1CCNC1=O)SCCS2` ?
17000

----------
# Test Protocol: in vivo
# Condition Parameters: both, cynomolgus monkey, po
Quantity Measured: Cmax

Quick check: Cmax of CC(C)(C)[C@H](NC(=O)C(F)(F)F)C(=O)N1CC2(C[C@H]1C(=O)N[C@H](C#N)C[C@@H]1CCNC1=O)SCCS2 [compound 9, simnotrelvir] ?
2440 ng/mL
